The compounds below have reported MIC for E. faecalis MMH594.

Worked examples follow.
NNc1ccc2c(Cl)cc(Cl)c(O)c2n1 [Compound 11]
6.25 µg/mL
Oc1c(C(Nc2ccccn2)c2ccccc2F)cc(Cl)c2cccnc12 (stereo not drawn) [Compound 1]
12.5 µg/mL
CC(C)(C)C1=NN(c2nc3ccc(Cl)cc3s2)C(=O)C1 [Compound 4]
1.56 µg/mL
CSc1ccc(-c2cccs2)nn1 [Compound 8]
> 100 µg/mL
Oc1c(C(Nc2ccccn2)c2cccc(F)c2)cc(Cl)c2cccnc12 (stereo not drawn) [Compound 2]
25 µg/mL

Form field MIC for item O=C(O)C1CC(=O)N(CCC23CC4CC(CC(C4)C2)C3)/C(=N\c2ccc(Cl)cc2)S1 (stereo not drawn) [Compound 6] on E. faecalis MMH594: 6.25 µg/mL

Form field MIC for item Cc1c(O)ccc(/C=N/Nc2nc(-c3ccc(Br)cc3)nc3ccccc23)c1O [Compound 9] on E. faecalis MMH594: > 100 µg/mL

Form field MIC for item O=C(CCSCc1ccc(Cl)cc1)N1CCN(c2ccccc2)CC1 [Compound 7] on E. faecalis MMH594: > 100 µg/mL

Form field MIC for item Oc1c(C(Nc2ccccn2)c2ccccn2)cc(Cl)c2cccnc12 (stereo not drawn) [Compound 3] on E. faecalis MMH594: 12.5 µg/mL
